Let's go through some recorded Ki values for hAPN (aminopeptidase N) (Homo sapiens) together.
Starred links: 1 amine or outer side, 2 acyl side, 3 side chain; linkers in the order of their positions; H or OH if unused. Positions of bridges follow the written chain, without caps; N, C: chain ends. Residues, ends and D or L forms follow the SMILES beside them. *: point of attachment. Suc = O=C(CCC(=O)[*:2])[*:1]; Cbz = O=C(OCc1ccccc1)*; For = O=C*

| compound | Ki |
| --- | --- |
| CC(C)C[C@@H]1NC(=O)[C@@H](N)CSSC[C@@H](C(=O)O)NC(=O)[C@@H]2CCCN2C(=O)[C@H](CO)NC(=O)[C@H](Cc2c[nH]cn2)NC1=O [cyc-LHSP] (H-CLHSPC-OH; disulfide 1-6) | 121 µM |
| CC(=O)N[C@@H](Cc1c[nH]cn1)C(=O)N[C@@H](CO)C(=O)N1CCC[C@H]1C(=O)N[C@@H](Cc1c[nH]c2ccccc12)C(=O)O [Ac-HSPW] (Ac-HSPW-OH; C-terminus assumed) | > 500 µM |
| CC(C)C[C@@H]1NC(=O)[C@@H](N)CSSC[C@@H](C(=O)O)NC(=O)[C@H](Cc2ccccc2)NC(=O)[C@H]([C@@H](C)O)NC(=O)[C@H](CO)NC(=O)[C@H](CC(=O)O)NC1=O [cyc-LDSTF] (H-CLDSTFC-OH; disulfide 1-7) | > 500 µM |
| O=CN[C@@H](Cc1c[nH]cn1)C(=O)N[C@@H](CO)C(=O)N1CCC[C@H]1C(=O)N[C@@H](Cc1c[nH]c2ccccc12)C(=O)O [For-HSPW] (For-HSPW-OH; C-terminus assumed) | > 500 µM |
| O=C(N[C@@H](Cc1c[nH]cn1)C(=O)N[C@@H](CO)C(=O)N1CCC[C@H]1C(=O)N[C@@H](Cc1c[nH]c2ccccc12)C(=O)O)OCc1ccccc1 [Cbz-HSPW] (Cbz-HSPW-OH; C-terminus assumed) | > 500 µM |
| CC(C)C[C@@H]1NC(=O)[C@@H](N)CSSC[C@@H](C(=O)O)NC(=O)[C@H](CO)NC(=O)[C@H](Cc2c[nH]cn2)NC1=O [cyc-LHS] (H-CLHSC-OH; disulfide 1-5) | > 500 µM |
| CC(C)C[C@H](NC(=O)CCC(=O)O)C(=O)N[C@@H](Cc1c[nH]cn1)C(=O)N[C@@H](CO)C(=O)N1CCC[C@H]1C(=O)N[C@@H](Cc1c[nH]c2ccccc12)C(=O)O [Suc-LHSPW] (Suc-LHSPW-OH) | > 500 µM |
| CC(C)C[C@H](NC=O)C(=O)N[C@@H](Cc1c[nH]cn1)C(=O)N[C@@H](CO)C(=O)N1CCC[C@H]1C(=O)N[C@@H](Cc1c[nH]c2ccccc12)C(=O)O [For-LHSPW] (For-LHSPW-OH) | > 500 µM |
| CC(C)C[C@@H]1NC(=O)[C@@H](N)CSSC[C@@H](C(=O)O)NC(=O)[C@H](Cc2c[nH]c3ccccc23)NC(=O)[C@@H]2CCCN2C(=O)[C@H](CO)NC(=O)[C@H](Cc2c[nH]cn2)NC1=O [cyc-LHSPW, Cys-LHSPW-Cys] (H-CLHSPWC-OH; disulfide 1-7) | 24.7 µM |
